- measurementTarget: hOATP1B1 (Homo sapiens)
- Sequence (Q9Y6L6 whole entry): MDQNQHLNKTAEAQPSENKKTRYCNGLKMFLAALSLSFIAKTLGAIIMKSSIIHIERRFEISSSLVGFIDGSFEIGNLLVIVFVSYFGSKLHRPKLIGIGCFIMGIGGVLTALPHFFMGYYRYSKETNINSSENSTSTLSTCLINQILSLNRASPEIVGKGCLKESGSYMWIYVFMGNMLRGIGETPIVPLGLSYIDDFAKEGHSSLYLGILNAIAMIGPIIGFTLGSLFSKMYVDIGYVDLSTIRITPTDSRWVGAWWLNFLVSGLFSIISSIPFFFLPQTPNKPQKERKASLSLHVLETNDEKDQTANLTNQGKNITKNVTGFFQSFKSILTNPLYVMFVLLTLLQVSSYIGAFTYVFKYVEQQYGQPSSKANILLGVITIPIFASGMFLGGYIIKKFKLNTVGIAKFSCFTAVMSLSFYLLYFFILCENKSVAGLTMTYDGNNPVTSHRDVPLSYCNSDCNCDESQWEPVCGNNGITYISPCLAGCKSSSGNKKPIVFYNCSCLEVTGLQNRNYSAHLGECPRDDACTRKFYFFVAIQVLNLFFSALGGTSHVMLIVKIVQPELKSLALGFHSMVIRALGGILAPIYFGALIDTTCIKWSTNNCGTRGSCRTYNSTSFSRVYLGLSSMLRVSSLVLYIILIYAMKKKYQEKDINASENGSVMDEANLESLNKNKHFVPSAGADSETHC
- Format: in vitro ADME
- settings: read-out: IC50 on hOATP1B1; 3H-ES probe, 2 min
measuredParameter: IC50

>>> recordedmeasurement("C=CC(C)(C)c1cc(/C=C/C(=O)c2ccc(O)cc2)c(OC)cc1O")
"1270 nM"
